B1: LINE1-full (parent)
chain: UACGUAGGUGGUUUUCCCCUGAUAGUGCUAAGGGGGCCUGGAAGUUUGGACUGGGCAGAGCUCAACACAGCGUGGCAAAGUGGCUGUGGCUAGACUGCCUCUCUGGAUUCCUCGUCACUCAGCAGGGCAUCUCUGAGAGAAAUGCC

Variants of: B1
Test: self-cleavage, relative activity (ratio to wild type); higher = more cleavage; in vitro, sequencing; the parent is a self-cleaving ribozyme
The label depends only on self-cleavage: yes if it is at least 1, no if it is smaller.

Observe how each entry below is paired with its result.
U1G | no
U96C C131U | no
G60C U109C | no

Does self-cleavage meet or surpass 1 for U14C A142C ? yes

Does self-cleavage meet or surpass 1 for U9C U13C ? yes

The measured values listed here are drawn from the RNAGym collection of RNA variant scans (doi:10.7554/elife.90254).
